# TARGET OR TEST SYSTEM: KRas^G12C (Homo sapiens, UniProt P01116, G12C)
# Sequence (P01116 1-169 isoform P01116-2 G12C): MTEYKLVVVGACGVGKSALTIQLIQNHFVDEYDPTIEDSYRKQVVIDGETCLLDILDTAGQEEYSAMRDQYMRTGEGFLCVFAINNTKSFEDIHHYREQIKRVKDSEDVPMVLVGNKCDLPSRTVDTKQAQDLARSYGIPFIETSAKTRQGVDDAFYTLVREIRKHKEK
# ASSAY SUMMARY: biochemical
Define the label as Satisfied when IC50 is strictly less than 1 µM and as Not satisfied in all remaining cases.

MOLECULE: CCc1cccc2cccc(N3CCc4c(nc(OCC56CCCN5CCC6)nc4N4CCCN(C(N)=O)CC4)C3)c12
CATEGORY: Satisfied

Decide: IC50 of CCc1cccc2cccc(N3CCc4c(nc(OCC56CCCN5CCC6)nc4N4CCCC(S(=O)(=O)NC)C4)C3)c12 (stereo not drawn) strictly below 1 µM?
Not satisfied

In the record for CCc1cccc2cccc(N3CCc4c(nc(OCC56CCCN5CCC6)nc4N(C)Cc4c[nH]nn4)C3)c12 , is IC50 less than 1 µM?
Not satisfied

Dear colleague, could you confirm whether IC50 of CCc1cccc2cccc(N3CCc4c(nc(OCC56CCCN5CCC6)nc4NCc4nnc(N)o4)C3)c12 falls below 1 µM? Thanks.
Satisfied

Take the molecule CCc1cccc2cccc(N3CCc4c(nc(OCC56CCCN5CCC6)nc4N4CCCC(c5nc(C)c(C(=O)NC6CCC6)o5)C4)C3)c12 (stereo not drawn) and say whether its IC50 is less than 1 µM.
Not satisfied

Does CCc1cccc2cccc(N3CCc4c(nc(OCC56CCCN5CCC6)nc4N4CCOC5(CCSC5)C4)C3)c12 (stereo not drawn) have IC50 strictly under 1 µM?
Not satisfied

----------
# TARGET OR TEST SYSTEM: KRas^G12C (Homo sapiens, UniProt P01116, G12C)
# ASSAY SUMMARY: biochemical
# key: entry, value: pIC50
Remember the convention: pIC50 equals -log10 of concentration in molar.

Here's what some known entries look like.
COMPOUND: CCc1cccc2cccc(N3CCc4c(nc(OCC56CCCN5CCC6)nc4N4CCC(n5ccnn5)CC4)C3)c12 [Example 151]
pIC50: 5.46

COMPOUND: CCc1cccc2cccc(N3CCc4c(nc(OCC56CCCN5CCC6)nc4N4C[C@@H](C)C[C@@H](O)C4)C3)c12 [Example 111]
pIC50: 6.38

COMPOUND: O=C1NC(=O)C2CN(c3nc(OCC45CCCN4CCC5)nc4c3CCN(c3cccc5cccc(Cl)c35)C4)CC12 (stereo not drawn) [Example 79]
pIC50: 6.94

COMPOUND: CCc1cccc2cccc(N3CCc4c(nc(OCC56CCCN5CCC6)nc4N4CCCn5nccc5C4)C3)c12 [Example 51]
pIC50: 6.25

COMPOUND: CCc1cccc2cccc(N3CCc4c(nc(OCC56CCCN5CCC6)nc4N4C[C@@H](C)C[C@H](O)C4)C3)c12 [Example 97]
pIC50: 6.25

With those in mind, consider the next compound.
Dear colleague, please send me the reported pIC50 for CCc1cccc2cccc(N3CCc4c(nc(OCC56CCCN5CCC6)nc4N4CCCC(n5nccn5)C4)C3)c12 (stereo not drawn) [Example 132] when you can.
5.88

----------
# TARGET OR TEST SYSTEM: KRas^G12D (Homo sapiens, UniProt P01116, G12D)
# Construct: […]; biotin (biotinylated)
# Sequence (P01116 1-169 isoform P01116-2 G12D): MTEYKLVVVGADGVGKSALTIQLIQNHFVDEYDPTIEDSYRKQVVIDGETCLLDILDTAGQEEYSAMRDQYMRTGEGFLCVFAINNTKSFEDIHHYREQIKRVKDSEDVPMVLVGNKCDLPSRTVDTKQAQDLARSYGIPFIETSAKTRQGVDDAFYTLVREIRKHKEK
# ASSAY SUMMARY: KRas binding assay (TR-FRET displacement of Cy5 labelled tracer)
MEASURED ENDPOINT: IC50 (µM)
Kindly provide the numeric value in µM only, without the unit symbol.

# example entries with known answers
MOLECULE: CCc1cccc2cccc(N3CCc4c(nc(OCC56CCCN5CCC6)nc4N4CCN(c5ccncn5)CC4)C3)c12 [Example 58]
IC50 [µM]: 20
--
MOLECULE: CCc1cccc2cccc(N3CCc4c(nc(OCC56CCCN5CCC6)nc4NCCS(=O)(=O)N=S(C)(C)=O)C3)c12 [Example 165]
IC50 [µM]: 14.2
--
MOLECULE: CCc1cccc2cccc(N3CCc4c(nc(OCC56CCCN5CCC6)nc4N4CCCC(c5noc(C(F)(F)F)n5)C4)C3)c12 (stereo not shown) [Example 163]
IC50 [µM]: 7.11
--
MOLECULE: CCc1c(F)ccc2cc(O)cc(N3CCc4c(nc(OC[C@@]56CCCN5C[C@H](F)C6)nc4N4C[C@H](O)C[C@H](C(N)=O)C4)C3)c12 [Example 187]
IC50 [µM]: 0.004
--
MOLECULE: CCc1c(F)ccc2cc(O)cc(N3CCc4c(nc(OC[C@@]56CCCN5C[C@H](F)C6)nc4N4C[C@H]5C[C@H](O)C[C@H]5C4)C3)c12 [Example 183]
IC50 [µM]: 0.15
--
MOLECULE: CCc1cccc2cccc(N3CCc4c(nc(OCC56CCCN5CCC6)nc4N4CCCC(c5ccno5)C4)C3)c12 (stereo not shown) [Example 99]
IC50 [µM]: 3.01
--
MOLECULE: CCc1cccc2cccc(N3CCc4c(nc(OCC56CCCN5CCC6)nc4N4CCCC(n5ccc(C)n5)C4)C3)c12 (stereo not shown) [Example 94]
IC50 [µM]: 2.12
--
MOLECULE: CCc1cccc2cccc(N3CCc4c(nc(OCC56CCCN5CCC6)nc4N4CCC(CO)C(O)C4)C3)c12 (stereo not shown) [Example 86]
IC50 [µM]: 1.32
--
MOLECULE: CCc1cccc2cccc(N3CCc4c(nc(OCC56CCCN5CCC6)nc4N4CCCCCC(S(C)(=O)=O)C4)C3)c12 (stereo not shown) [Example 14]
IC50 [µM]: 0.256
--
MOLECULE: CCc1c(F)ccc2cccc(N3CCc4c(nc(OCC56CCCN5CCC6)nc4N4CCC[C@@](C)(O)C4)C3)c12 [Example 3]
IC50 [µM]: 0.016

Specify the recorded IC50 for CCc1cccc2cccc(N3CCc4c(nc(OCC56CCCN5CCC6)nc4NCc4nnc(N)o4)C3)c12 [Example 136] , system: KRas^G12D (Homo sapiens, UniProt P01116, G12D).
3.39
